- target-system: Protein cereblon/Glycogen synthase kinase-3 alpha (Homo sapiens, UniProt P49840+Q96SW2)
- Sequence (P49840 2-483 limits assumed): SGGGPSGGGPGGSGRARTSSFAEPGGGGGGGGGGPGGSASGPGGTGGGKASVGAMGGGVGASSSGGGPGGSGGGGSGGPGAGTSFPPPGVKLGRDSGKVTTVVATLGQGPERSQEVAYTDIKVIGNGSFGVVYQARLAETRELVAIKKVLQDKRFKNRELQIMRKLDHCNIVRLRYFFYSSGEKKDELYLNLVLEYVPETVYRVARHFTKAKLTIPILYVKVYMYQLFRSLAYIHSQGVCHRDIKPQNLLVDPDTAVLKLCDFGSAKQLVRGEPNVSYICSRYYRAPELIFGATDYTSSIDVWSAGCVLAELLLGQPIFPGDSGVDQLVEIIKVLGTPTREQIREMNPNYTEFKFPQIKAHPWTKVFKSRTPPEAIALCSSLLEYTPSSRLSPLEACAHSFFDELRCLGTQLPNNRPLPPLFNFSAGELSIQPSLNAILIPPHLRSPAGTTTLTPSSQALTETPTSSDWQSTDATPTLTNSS
- Sequence (Q96SW2 whole entry partner): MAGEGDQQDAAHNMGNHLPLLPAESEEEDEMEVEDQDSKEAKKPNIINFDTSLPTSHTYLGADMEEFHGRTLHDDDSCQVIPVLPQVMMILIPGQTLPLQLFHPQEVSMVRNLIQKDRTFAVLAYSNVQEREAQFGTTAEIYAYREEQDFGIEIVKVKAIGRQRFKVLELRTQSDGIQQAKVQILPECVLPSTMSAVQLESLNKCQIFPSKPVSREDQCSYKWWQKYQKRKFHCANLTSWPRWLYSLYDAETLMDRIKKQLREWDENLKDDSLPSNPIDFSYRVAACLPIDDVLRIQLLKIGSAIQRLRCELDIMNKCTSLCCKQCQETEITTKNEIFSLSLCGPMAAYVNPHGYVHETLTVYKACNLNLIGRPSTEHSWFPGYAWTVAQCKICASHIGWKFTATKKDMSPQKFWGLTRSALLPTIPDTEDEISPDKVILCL
- assay: Protac activity at CRBN/GSK3alpha in human SH-SY5Y cells assessed as induction of GSK3alpha protein degradation at 10 uM measured after 24 hrs
- Assay type: cell-based
outcome-measure: Activity

Below, each entry is followed by its recorded Activity result.
molecule | Activity
COc1ccc(-c2ocnc2C(=O)NCCCn2cc(CCCCC(=O)N[C@@H](C(=O)N3C[C@H](O)C[C@H]3C(=O)NCc3ccc(-c4scnc4C)cc3)C(C)(C)C)nn2)cc1Cl | < 5%
COc1ccc(-c2ocnc2C(=O)NCCCn2cc(COCCOCCOCCOCC(=O)N[C@@H](C(=O)N3C[C@H](O)C[C@H]3C(=O)NCc3ccc(-c4scnc4C)cc3)C(C)(C)C)nn2)cc1Cl | < 5%

Please examine the following record next.
Asked: Please state recorded Activity (tested on Protein cereblon/Glycogen synthase kinase-3 alpha (Homo sapiens, UniProt P49840+Q96SW2)) of COc1ccc(-c2ocnc2C(=O)NCCCc2cn(CCOCCOCCOCCNC(=O)CNc3cccc4c3CN(C3CCC(=O)NC3=O)C4=O)nn2)cc1Cl (stereo not drawn)
Given back: < 5%
